Tested on: IGROV1 ovarian
Test: NCI tumour cell line growth inhibition, 48 h
Assignment: determine reported TGI for the given compounds.

{"columns": ["compound", "TGI"],
 "data": [
  ["Cc1ccc(Cc2n[nH]c(=O)n2/N=C\\CC/C=N\\n2c(Cc3ccc(C)cc3)n[nH]c2=O)cc1", "> 100 µM"],
  ["COc1ccc2c(c1)=C(C=C1C=CN(O)C=C1)C(=O)N=2", "> 94.4 µM"],
  ["COc1ccc2c(c1)C(=O)N1CCOC1C2C(=O)O (stereo unspecified)", "> 100 µM"],
  ["O=S(=O)(Cc1ccc(Cl)cc1Cl)c1ccc(Cl)cc1", "> 21.9 µM"],
  ["CN(Cc1ccc(Cl)cc1)c1ccc(CO)c(Cl)c1", "2.24 µM"]
]}

Fill in TGI for each of the 2 compounds listed.
1. Cn1c(-c2cccs2)cc(-c2ccccc2)c1-c1cccs1
2. CCOC(=O)C1C(c2ccc(OC)cc2)c2c([nH]n(-c3ccccc3)c2=O)CC1(O)OCC (stereo unspecified)

Output:
["> 100 µM", "> 100 µM"]

----------
Assignment: determine reported TGI for the given compounds.
Test system: BT-549 breast
Test: NCI tumour cell line growth inhibition, 48 h

{"columns": ["compound", "TGI"],
 "data": [
  ["N#Cc1cccc(OCc2nc(N)nc(N)c2-c2ccc(Cl)c(Cl)c2)c1", "> 100 µM"],
  ["C/C(=C\\c1ccccc1)C(=O)NCc1ccc(C(=O)NCCC(C)C)cc1", "> 100 µM"],
  ["CCCN1CC=C(c2cc(C(=O)OCC)[nH]c2-c2cc(C)no2)C1=O", "> 100 µM"]
]}

Fill in TGI for each of the 8 compounds listed.
1. Clc1ccc(/C=C/c2cc(N3CCOCC3)c3cc(Cl)c(Cl)cc3n2)cc1
2. N=C(N)c1ccc(OCCOCCOc2ccc(C(=N)N)cc2)cc1
3. COc1cc(/C=C2/SC(c3ccccc3)N(c3cccc(Cl)c3)C2=O)cc(OC)c1OC (stereo unspecified)
4. Cc1c(C#N)c2ccccc2c2nc3ccccc3n12
5. O=C1NC(=O)C(CC(C(=O)C(=O)Nc2ccccc2Cl)C(=O)c2ccc3ccccc3c2)C(=O)N1 (stereo unspecified)
6. COC(=O)C(C)(C)OCc1ccc(C2NC(=O)N(c3cccc(Cl)c3)C(=O)N2c2cccc(Cl)c2)cc1 (stereo unspecified)
7. CC(C)c1nc2cc(C(F)(F)F)ccc2[nH]c1=O
8. C=C(C)C1Cc2c(cc(OC)c3c(=O)c4cccc(O)c4oc23)O1 (stereo unspecified)

Output:
1. > 40.2 µM
2. > 100 µM
3. 72 µM
4. > 100 µM
5. > 100 µM
6. > 100 µM
7. > 100 µM
8. 34.8 µM

----------
System: UO-31 renal
Test: NCI tumour cell line growth inhibition, 48 h
Assignment: determine reported TGI for the given compounds.

In the examples that follow, each entry is paired with its recorded TGI.
{"columns": ["compound", "targetDesc", "TGI"],
 "data": [
  ["C#CCn1ncc2c(SC)ncnc21", "UO-31 renal", "> 100 µM"],
  ["CC/C(=C(/c1ccc(OCCN(C)C)cc1)c1ccc(OC(=O)CCC(=O)c2c(C)[nH]c(/C=C3\\N=C(c4ccc[nH]4)C=C3OC)c2C)cc1)c1ccccc1", "UO-31 renal", "5.05 µM"],
  ["CCOCN1COCN=C1NC#N", "UO-31 renal", "> 100 µM"]
]}

Fill in TGI for each of the 5 compounds listed.
1. CC(C)Nc1ccc(Nc2ccccc2)cc1
2. CC(=O)NNc1nc(C)c(C(/C=C/c2ccc([N+](=O)[O-])cc2)=N/N)s1
3. O=C1C2C(C(=O)[N]1[Hg][c]1cccs1)C1(Cl)C(Cl)=C(Cl)C2(Cl)C1(Cl)Cl (configuration not stated)
4. Cc1ccccc1C1OC(=O)c2ccccc21 (configuration not stated)
5. CSc1cccc(-n2c3nc(=O)n(C)c(=O)c-3nc3ccccc32)c1

Output:
64.9 µM
> 100 µM
3.21 µM
> 100 µM
32.9 µM
